# Test system: Malme-3M
# protocol text: NCI tumour cell line growth inhibition, 48 h
Calls of active or inactive are those of the source. No stated cut-off is given here; in the data, active = GI50 up to about 1.1 µM and inactive = higher.
Reported GI50 by item:

compound	GI50
COC(=O)C(CC(=O)Nc1ccc(C)cc1)C(=O)C(=O)Nc1c(C(C)C)cccc1C(C)C (centres undefined)	> 100 µM (inactive)
Clc1cc(Cl)cc(/C=N/C23CC4CC(CC(C4)C2)C3)c1	> 10 µM (inactive)
COc1cccc2c1OC(c1ccc(C#N)cc1)C([N+](=O)[O-])=C2 (centres undefined)	1.61 µM (inactive)
Cc1[nH]c2ccccc2c1C1=NO/C(=N\O)C(c2c(C)[nH]c3ccccc23)C1 (centres undefined)	53.2 µM (inactive)
CCCC(=O)OCC(COC(=O)CCC)OC(=O)CCC	41.2 µM (inactive)
C=CCNC1=C2C[C@@H](C)C[C@@H](OC)[C@H](OC(=O)CCN)[C@H](C)/C=C(\C)[C@@H](OC(N)=O)[C@H](OC)/C=C\C=C(/C)C(=O)NC(=CC1=O)C2=O	2.67 µM (inactive)
CC(=O)OC1C(=O)C(O)C(C)OC1O[C@@H]1C[C@@]2(C)[C@@H]3CC=C4[C@@H](C[C@H](O)C(=O)C4(C)C)[C@]3(C)C(=O)C[C@]2(C)[C@H]1[C@@](C)(O)C(=O)/C=C/C(C)(C)O (some centres undefined)	1.04 µM (active)
C=CCCCCCCCC(O)C1C[C@H](O)C(CCCCC)O1 (some centres undefined)	17.3 µM (inactive)
Clc1ccc(CNc2nc3ccccc3nc2-c2cccs2)c(Cl)c1	> 100 µM (inactive)
CC(=O)/C(=C\C1=CCCO1)C(=O)Nc1ccccc1C	> 100 µM (inactive)
O=C(Cn1c(C(=O)/C=C/c2ccc(Cl)c(Cl)c2)nc2ccccc21)c1ccccc1	35.2 µM (inactive)
CCN(CC)CCN1c2ccccc2Sc2ccc3ccccc3c21	15.4 µM (inactive)
COC(=O)C1=C(C(=O)OC)C2(C)OC1C(=O)C21CC1 (centres undefined)	23.9 µM (inactive)
CC(C)C(NCc1c2ccccc2[n+]([O-])c2ccccc12)C(=O)O (centres undefined)	92.7 µM (inactive)
O=C(CNc1c(Cl)cccc1Cl)NC1C=Cc2ccc(S(=O)(=O)Nc3c(Cl)cccc3Cl)cc2C1=O (centres undefined)	> 100 µM (inactive)
CC(C)(C)OC(=O)C(C1NC(C(=O)O)C(C)(C)S1)N1C(=O)c2ccccc2C1=O (centres undefined)	> 100 µM (inactive)
N#Cc1c(-c2ccccc2)c(CN2CCCCC2)c(=O)n2c1[nH]c1ccccc12	62.2 µM (inactive)
COC/C=C\[C@]1(O)CCCC[C@@H]1CC(OC)OC	> 100 µM (inactive)
Cc1ccc(S(=O)(=O)N/N=C2\C3CC4CC(C3)C2C4)cc1 (centres undefined)	> 100 µM (inactive)

---

# Test system: SN12C
# protocol text: NCI tumour cell line growth inhibition, 48 h
Calls of active or inactive are those of the source. Rule as the data show it: active = GI50 up to about 1.1 µM and inactive = higher.
Classes used: Y (active), N (inactive)

compound	cat
C=CCNC1=C2C[C@@H](C)C[C@@H](OC)[C@H](OC(=O)CCN)[C@H](C)/C=C(\C)[C@@H](OC(N)=O)[C@H](OC)/C=C\C=C(/C)C(=O)NC(=CC1=O)C2=O	N
COc1cccc(/C=C/c2ccc(S(N)(=O)=O)cc2)c1	N
CC1OC(OC2C(OC(=O)[C@]34CCC(C)(C)CC3C3=CCC5[C@@]6(C)C[C@H](O)[C@H](OC7OC(COC8OC(CO)C(O)C(O)C8O)C(O)C(O)C7O)[C@@](C)(C(=O)O)C6CC[C@@]5(C)C3(C)CC4)OCC(O)C2O)C(O)C(O)C1OC1OCC(O)C(O)C1O (stereo partly drawn)	N
O=[N+]([O-])c1cc(I)cc(/C=N/NS(=O)(=O)c2ccc(F)cc2)c1O	N
CCOC(=O)c1cc(C2CCN(c3ccccc3)C2=O)c(C(=O)/C=C(/C)N)[nH]1 (stereo not drawn)	N
CC(C)CC1c2[nH]c3ccccc3c2C[C@H]2C(=O)NC(COC(C)(C)C)C(=O)N12 (stereo partly drawn)	N
N=c1oc2ccccc2cc1C(=O)Nc1ccccn1	N
COc1ccc2c(c1)-c1[nH]c3ccc(OC)cc3c1CC2	N
COc1cccc(/C=C(/C(=O)O)c2cc(OC)c(OC)c(OC)c2)c1	N
CC[C@@H]1CC[C@@H]2[C@H](CC[C@]3(C)[C@@H](OS(=O)(=O)c4ccc(C)cc4)CC[C@@H]23)[C@H]1CO	N
NC(=S)N/N=C1\C(=O)N(c2cccc([N+](=O)[O-])c2)C(=O)C1C(=O)Nc1cccc([N+](=O)[O-])c1 (stereo not drawn)	N
Oc1cccc2c1[nH]c1c(C3=C[C@@]4(O)CC/C=C\CCCCN5CC[C@@H]3[C@]3(CC6/C=C\CCCCN6[C@H]34)C5)nccc12 (stereo partly drawn)	Y
O=C1CC2(CCC(O)(c3ccc4ccccc4c3)C(C(=O)c3ccc4ccccc4c3)C2)C(=O)c2ccccc2N1 (stereo not drawn)	N
NC(C(=O)OC(=O)c1ccccc1)C(=O)OC(=O)c1ccccc1	N
Cc1cc(C)nc(Sc2c([N+](=O)[O-])ncn2C)n1	N
COc1ccc(C(=O)c2sc(N(C)C)nc2-c2ccccc2)cc1	N
O=C(Cc1nc2ccccc2s1)C(=O)Nc1ccc(Cl)cc1Cl	N
CCOC(CI)O[C@@H]1C=C[C@H](OC(C)=O)C1 (stereo partly drawn)	N

src = ChEMBL document CHEMBL1201862
